# System: P. falciparum 3D7 trophozoites
# protocol-summary: Metabolomic fingerprint profiling LC-MS
# Format: cell-based, Plasmodium falciparum
# experimental-context: metabolite uridine; S2 Table Metabolomics, change in metabolite level after compound treatment
Reported uridine is given for each of the following molecules.
endpoint-name: uridine

INSERT INTO measurements (molecule, target, val) VALUES
  ('COc1ccc(-n2ccnc2SCC(=O)Nc2cc(C)ccc2C)c(OC)c1 [MMV019258]', 'P. falciparum 3D7 trophozoites', 0.32),
  ('COc1ccc(C=C2SC(=N)N(c3ccccc3OC)C2=O)cc1 [MMV666691]', 'P. falciparum 3D7 trophozoites', -0.3469),
  ('CC1CN(C(=O)c2sc3ccccc3c2Cl)CC(C)O1 (centres unmarked) [MMV020492]', 'P. falciparum 3D7 trophozoites', 0.1407),
  ('CCOC(=O)c1cnc2c(C)cc(C)cc2c1Nc1ccc(OC)c(OC)c1 [MMV008294]', 'P. falciparum 3D7 trophozoites', -0.03724),
  ('O=C(O)C1Cc2c([nH]c3ccccc23)C(c2ccc(Cl)cc2Cl)N1 (centres unmarked) [MMV008138]', 'P. falciparum 3D7 trophozoites', -0.07029),
  ('CCC(c1ccccc1)c1nn2c(-c3cccs3)nnc2s1 (centres unmarked) [MMV665876]', 'P. falciparum 3D7 trophozoites', -0.6108),
  ('CN(C)c1ccc(C=Cc2nc(=O)c3ccccc3o2)cc1 [MMV006309]', 'P. falciparum 3D7 trophozoites', -0.2519),
  ('CCOC(=O)c1cn(CC)c2cc(N3CCCCC3)c(F)cc2c1=O [MMV665827]', 'P. falciparum 3D7 trophozoites', 0.6011);

###

# Test system: P. falciparum 3D7 trophozoites
# protocol-summary: Metabolomic fingerprint profiling LC-MS
# Type: cell-based, Plasmodium falciparum
# experimental-context: metabolite indole, S2 Table Metabolomics
Reported indole is given for each of the following compounds.
endpoint-name: indole

INSERT INTO measurements (compound, val) VALUES
  ('COc1ccc(Br)cc1C1Nc2ccc3ccccc3c2C2=C1C(=O)CC(c1ccccc1)C2 (stereo not drawn)', 0.3168),
  ('CCCCCCOC(=O)C1=C(C)NC(=O)NC1c1ccccc1F (stereo not drawn)', 0.4434),
  ('COc1ccc(-c2cc3c(SCC(=O)Nc4cc(C(F)(F)F)ccc4Cl)nccn3n2)cc1', 0.2561);

###

# Test system: P. falciparum 3D7 trophozoites
# protocol-summary: Metabolomic fingerprint profiling LC-MS
# Type: cell-based, Plasmodium falciparum
# experimental-context: metabolite hypoxanthine, S2 Table Metabolomics
endpoint-name: hypoxanthine

INSERT INTO results (molecule, val) VALUES
  ('CNCCCNc1ccnc2cc(Cl)ccc12', -0.2256),
  ('CSC1=NC(=Nc2c(C)cccc2C)C2(CCC(C(C)(C)C)CC2)N1c1ccc(Cl)cc1 (centres unmarked)', -0.3496),
  ('COc1ccc2c(c1)OC(O)(C(F)(F)C(F)(F)F)CC2=O (centres unmarked)', 0.3062),
  ('CCc1c(C)c(=N)c2ccccc2n1C', 0.04937),
  ('Fc1ccc2[nH]c3c(NCCCN4CCOCC4)ncnc3c2c1', 0.02159),
  ('COc1ccc(C=C2SC(=N)N(c3ccccc3OC)C2=O)cc1', 0.09969),
  ('Cc1cc(NC(=O)C2c3ccccc3C(=O)N(CC(C)C)C2c2cccs2)no1 (centres unmarked)', 0.09881),
  ('CCOC(=O)c1cn(CC)c2cc(N3CCCCC3)c(F)cc2c1=O', -0.3352),
  ('Cc1cccc(Nc2nc(N)c3ccccc3n2)c1', -0.00849),
  ('CN(C)c1ccc(C=Cc2nc(=O)c3ccccc3o2)cc1', -0.07215),
  ('OC(CNC1CCCCC1)Cn1c2ccccc2c2ccccc21 (centres unmarked)', 0.2685);

###

# System: P. falciparum 3D7 trophozoites
# protocol-summary: Metabolomic fingerprint profiling LC-MS
# Format: cell-based, Plasmodium falciparum
# experimental-context: S2 Table Metabolomics; metabolite dTTP
Reported dTTP is given for each of the following compounds.
endpoint-name: dTTP

INSERT INTO measurements (compound, endpoint_name, val) VALUES
  ('CCCCCC(=O)N1c2ccccc2N=C2CC(c3ccc(OC)c(OC)c3)CC(O)=C2C1c1ccc(C(F)(F)F)cc1 (centres unmarked)', 'dTTP', 0.1067),
  ('CNCCCNc1ccnc2cc(Cl)ccc12', 'dTTP', -0.2992),
  ('COc1ccc(C(C)=O)cc1N1C(=O)C2C(C1=O)C1(c3ccccc3)C(=O)C2(c2ccccc2)C(c2ccc(C)cc2)=C1c1ccc(C)cc1 (centres unmarked)', 'dTTP', 0.01162),
  ('Cc1ccc(Nc2nc(NCCO)c3ccccc3n2)cc1C', 'dTTP', -1.24),
  ('CC1CN(C(=O)c2sc3ccccc3c2Cl)CC(C)O1 (centres unmarked)', 'dTTP', 0.08279),
  ('COc1ccccc1CNC(=O)CCn1c(=O)[nH]c2ccccc2c1=O', 'dTTP', 0.1028),
  ('c1ccc(Cn2c(N=Nc3c(Nc4ccccc4)ccc4ccccc34)nc3ccccc32)cc1', 'dTTP', -0.2342),
  ('CN(C)CCCNc1c2ccccc2nc2ccccc12', 'dTTP', 0.115),
  ('Cc1cc(C)cc(Nc2cc(C)nc3nc(C(F)(F)F)nn23)c1', 'dTTP', -1.159),
  ('CCOC(=O)c1cnc2c(C)cc(C)cc2c1Nc1ccc(OC)c(OC)c1', 'dTTP', -1.144),
  ('CCC(c1ccccc1)c1nn2c(-c3cccs3)nnc2s1 (centres unmarked)', 'dTTP', -1.561),
  ('O=[N+]([O-])c1ccc(C=NNc2nc3ccccc3[nH]2)cc1', 'dTTP', 0.4469),
  ('CCOc1cc2c(cc1OCC)C(c1cc(OC)c(O)cc1Cl)NCC2 (centres unmarked)', 'dTTP', 1.156),
  ('COc1ccc(Br)cc1C1Nc2ccc3ccccc3c2C2=C1C(=O)CC(c1ccccc1)C2 (centres unmarked)', 'dTTP', 0.08356),
  ('COc1ccc(-n2ccnc2SCC(=O)Nc2cc(C)ccc2C)c(OC)c1', 'dTTP', -1.338),
  ('Cc1cc(Nc2ccc(Cl)cc2)n2nc(C(F)(F)F)nc2n1', 'dTTP', -0.8663),
  ('Cc1cc(NCCN2CCCCC2)c2ccc3ccccc3c2n1', 'dTTP', 0.2113),
  ('CCOC(=O)c1c(NC(=O)c2ccccc2)sc2c(O)c(CN(CC)CC)ccc12', 'dTTP', -0.5361),
  ('COc1ccccc1CNC(=O)CCn1c(=O)[nH]c2ccsc2c1=O', 'dTTP', -0.2106),
  ('COc1cccc(NC(=O)[C@H](C(C)C)n2c(=O)[nH]c3ccccc3c2=O)c1', 'dTTP', 1.03),
  ('Cc1cc(NC(=O)C2c3ccccc3C(=O)N(CC(C)C)C2c2cccs2)no1 (centres unmarked)', 'dTTP', 1.446),
  ('Cc1ccc(N2C(=O)C3C(C2=O)C2(c4ccccc4)C(=O)C3(c3ccccc3)C(c3ccccc3)=C2c2ccccc2)cc1 (centres unmarked)', 'dTTP', -0.2344),
  ('CCCCCCOC(=O)C1=C(C)NC(=O)NC1c1ccccc1F (centres unmarked)', 'dTTP', -0.2978);

###

# System: P. falciparum 3D7 trophozoites
# protocol-summary: Metabolomic fingerprint profiling LC-MS
# Assay type: cell-based, Plasmodium falciparum
# experimental-context: S2 Table Metabolomics; metabolite dTMP
Lab note: cut-off is -0.1. Strictly less in dTMP is 1 (yes). Exactly -0.1 or more is 0 (no).

INSERT INTO assay_data (compound, target, classification) VALUES
  ('Cc1ccc(-c2cc3c(nn2)-c2ccccc2C3=O)cc1', 'P. falciparum 3D7 trophozoites', '1 (yes)'),
  ('Oc1ccccc1CNCC12CC3CC(CC(C3)C1)C2', 'P. falciparum 3D7 trophozoites', '1 (yes)'),
  ('CN(C)CCCNc1c2ccccc2nc2ccccc12', 'P. falciparum 3D7 trophozoites', '1 (yes)'),
  ('Cc1ccc(Nc2nc(NCCO)c3ccccc3n2)cc1C', 'P. falciparum 3D7 trophozoites', '0 (no)'),
  ('Cc1ccc(N2C(=O)C3C(C2=O)C2(c4ccccc4)C(=O)C3(c3ccccc3)C(c3ccccc3)=C2c2ccccc2)cc1 (stereo not drawn)', 'P. falciparum 3D7 trophozoites', '1 (yes)'),
  ('COc1ccc(C(=O)Nc2nonc2-c2ccc(OC)c(OC)c2)cc1Cl', 'P. falciparum 3D7 trophozoites', '0 (no)');

###

Reported 4-phosphopantothenate is given for each of the following compounds.
# Tested on: P. falciparum 3D7 trophozoites
# protocol-summary: Metabolomic fingerprint profiling LC-MS
# Format: cell-based, Plasmodium falciparum
# experimental-context: metabolite level change after treatment
endpoint-name: 4-phosphopantothenate

INSERT INTO measurements (compound, endpoint_name, val) VALUES
  ('CCOC(=O)c1ccc2nc(-c3ccccc3)cc(O)c2c1', '4-phosphopantothenate', -0.4551),
  ('COc1ccc2c(=O)cc(C(Cl)(Cl)Cl)oc2c1', '4-phosphopantothenate', -2.584),
  ('OC(CNC1CCCCC1)Cn1c2ccccc2c2ccccc21 (stereo not drawn)', '4-phosphopantothenate', 0.6116),
  ('CCc1ccc(Nc2cc(C)c3ccc(O)cc3n2)cc1', '4-phosphopantothenate', -0.2389),
  ('CN1CCN(c2ccc(Nc3c4ccccc4nc4ccccc34)cc2)CC1', '4-phosphopantothenate', 0.2237),
  ('Cc1cc(NC(=O)C2c3ccccc3C(=O)N(CC(C)C)C2c2cccs2)no1 (stereo not drawn)', '4-phosphopantothenate', -0.6242);
